# Test system: MIWI (PIWIL1) piRISC loaded with L1MC piRNA (30 nt);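 further: 1 nM active piRISC with 0.1 nM target library at 33 °C single turnover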
# test.details: pre-steady-state target cleavage rate (min^-1); MIWI and MILI are mouse PIWI proteins and EfPiwi is from a freshwater sponge; tags in brackets are library labels; higher = faster piRNA-guided slicing of the target;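 further: 1 nM active piRISC with 0.1 nM target library at 33 °C single turnover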
# condition.notes: guide: L1MC piRNA 5'p-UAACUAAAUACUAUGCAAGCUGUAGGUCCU; auxiliary factor: 500 nM mouse GTSF1
Whole data set: some 8,200 sequences, median “pre-steady-state target cleavage rate” near 0.024, cut for the highest 2% near 1.3. This excerpt belongs to a sample that is enriched for the highest values.
Documented pre-steady-state target cleavage rate across a set of sequences
Provide a numeric answer; units are not to be included.

UGGACCUAGUCCUUGCAUAGUAUUUACAAA ... 0.0221
ACCACCUACAGCUUGCAUAGUAUUUAGUUA ... 1.16
UCGAGCUACAGCUUGCAUAGUAUUUAGUAA ... 1.08
UCCUCCUACAGCUUGCAUACUAUUUACUUA ... 0.197
UCCUGGAUGAGCUUGCAUAGUAAUUAGAAA ... 0.0194
UCCUGCUACAGCAUGCAUAGUAUUUAGUUA ... 1.21
AGGACCUACACCUUGCAUAGUAUUAAGUUA ... 0.627
UCGACCUACCAGCUUGCAUAGUAUUUAGUUA ... 1.29

Bench note, MIWI (PIWIL1) piRISC loaded with L1MC piRNA (30 nt): AGGACCUUACAGCUUGCAUAGUAUUUAGUUA , pre-steady-state target cleavage rate reads 1.33

Bench note, MIWI (PIWIL1) piRISC loaded with L1MC piRNA (30 nt): UCCUGGAUGUGCUUGCAUUGUAUUUAGAUA , pre-steady-state target cleavage rate reads 0.0181

Bench note, MIWI (PIWIL1) piRISC loaded with L1MC piRNA (30 nt): UGGACCUACAUGCUUGCAUAGUAUUUAGUUA , pre-steady-state target cleavage rate reads 0.925

Bench note, MIWI (PIWIL1) piRISC loaded with L1MC piRNA (30 nt): UCCUGCAACAGCUAGCAUAGUAUUUAGUUA , pre-steady-state target cleavage rate reads 1.12

Bench note, MIWI (PIWIL1) piRISC loaded with L1MC piRNA (30 nt): UGGUACCUACAGCUUGCAUAGUAUUUAGUUA , pre-steady-state target cleavage rate reads 0.945

Bench note, MIWI (PIWIL1) piRISC loaded with L1MC piRNA (30 nt): UCCUGGAACAGCUUGCUUAGUAUUUAGUUA , pre-steady-state target cleavage rate reads 1.14

Bench note, MIWI (PIWIL1) piRISC loaded with L1MC piRNA (30 nt): AGGACCAUCAGCUUGCAUAGUAUUUAGUUA , pre-steady-state target cleavage rate reads 1.3

Bench note, MIWI (PIWIL1) piRISC loaded with L1MC piRNA (30 nt): UCCUCCUACUGCUUGCAUAGUAUAUAGUUA , pre-steady-state target cleavage rate reads 0.472
